These entries and their values trace back to ChEMBL document CHEMBL1201862.

System: HCC 2998
PROTOCOL: NCI tumour cell line growth inhibition, 48 h
Activity calls are given as the source filed them. No stated cut-off is given here; in the data, active = GI50 up to about 1.1 µM and inactive = higher.
API: response.call in 1.0 (active), 0.0 (inactive)

INSERT INTO assay_data (compound, class) VALUES
  ('Cc1cc2nc3c(C#N)c(-c4ccccc4)cc(Nc4cccc(C(F)(F)F)c4)n3c2cc1C', 0.0),
  ('c1ccc(C(c2ccccc2)[P+](c2ccccc2)(c2ccccc2)c2ccccc2)cc1', 1.0);

input: Per the records of this test, what outcome belongs to "C/C(=N\NC(N)=S)c1ccccn1.OB(O)c1ccccc1" ?
output: 0.0

input: Per the records of this test, what outcome belongs to "CCNc1nc(N)c(C(=O)c2cccs2)s1" ?
output: 0.0

input: Per the records of this test, what outcome belongs to Cc1cccc(CC(C)(C)C)c1NC(=O)C(=O)C(C(=O)c1ccc2ccccc2c1)C1OC(=O)c2ccccc21 (configuration not stated) ?
output: 0.0

input: Per the records of this test, what outcome belongs to CC1(c2sccc2Cl)CC(c2sccc2Cl)=C(C#N)C(=C(C#N)C#N)N1 (configuration not stated) ?
output: 0.0

input: Per the records of this test, what outcome belongs to CSc1nc(NC2OC(COC(C)=O)C(OC(C)=O)C(OC(C)=O)C2OC(C)=O)c(/N=C\C=N/c2c(NC3OC(COC(C)=O)C(OC(C)=O)C(OC(C)=O)C3OC(C)=O)nc(SC)n(C)c2=O)c(=O)n1C (configuration not stated) ?
output: 0.0
